Here's a batch of compounds along with measured pIC50 for UniProt Q9UK80.
Sequence (Q9UK80 whole entry): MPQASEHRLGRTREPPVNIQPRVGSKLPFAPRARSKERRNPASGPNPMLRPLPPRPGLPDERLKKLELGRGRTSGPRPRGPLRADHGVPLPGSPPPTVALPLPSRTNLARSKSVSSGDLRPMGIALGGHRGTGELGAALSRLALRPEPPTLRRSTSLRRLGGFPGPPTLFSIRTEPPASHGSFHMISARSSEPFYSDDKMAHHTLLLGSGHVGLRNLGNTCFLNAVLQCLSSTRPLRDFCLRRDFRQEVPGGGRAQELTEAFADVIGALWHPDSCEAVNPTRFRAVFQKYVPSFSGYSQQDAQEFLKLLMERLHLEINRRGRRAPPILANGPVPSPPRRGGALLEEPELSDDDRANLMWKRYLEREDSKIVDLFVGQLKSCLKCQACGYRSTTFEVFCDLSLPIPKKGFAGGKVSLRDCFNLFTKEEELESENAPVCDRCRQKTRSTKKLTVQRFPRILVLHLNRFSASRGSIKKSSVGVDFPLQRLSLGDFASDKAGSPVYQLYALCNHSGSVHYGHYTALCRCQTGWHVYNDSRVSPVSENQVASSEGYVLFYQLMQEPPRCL
pIC50: −log10 of the molar value.
value-type: pIC50

[
  {
    "compound": "COC[C@@H](NC(=O)C1(C)CCCCC1)C(=O)Nc1nnc(Cc2ccc([N+](=O)[O-])cc2)s1",
    "value-type": "pIC50",
    "obs-value": 7.13
  }
]

I. COC[C@@H](NC(=O)C1(C)CCCCC1)C(=O)Nc1sc(Cc2ccc(C#N)cc2)nc1C
II. COC[C@@H](NC(=O)C1(OC)CCCCC1)C(=O)Nc1nnc(Cc2ccc(C#N)cc2)s1
III. COCC(NC(=O)c1ccccc1)C(=O)Nc1nnc(Cc2ccc([N+](=O)[O-])cc2)s1 (centres unmarked)
Sort these compounds on pIC50 so the largest reading comes first. # format: label list in the order the request specifies
I, III, II
(I: 7.19, III: 4.93, II: 4.67)
